Molecular target: membrane-associated human IR-A (plasma membranes of BHK cells stably transfected with the human IR-A insert) (human) (UniProt P06213)
Experiment: SPA competition vs [125I-A14Y]-human insulin, membrane hIR-A, 0.1% HSA
Give relative binding affinity (% rel to HI) for every item shown.

Sample A8R, A22K(N(eps)tetradecanedioyl-4xgGlu), B3E, B26E, B27E, B28R, desB29, desB30 human insulin (ligand, not fully specified; Lys A22 acylated on N(eps) with tetradecanedioyl-4xgGlu, Two-chain acylated insulin analogue; also called Ex. No. 19) chain 1: GIVEQCCRSICSLYQLENYCNK chain 2: FVEQHLCGSHLVEALYLVCGERGFFEER — what was its relative binding affinity (% rel to HI)?
88.8 % rel to HI

Here is the next binder: A14E, A22K(N(eps)tetradecanedioyl-4xgGlu), B3Q, B28D, B29R, desB30 human insulin (ligand, not fully specified; Lys A22 acylated on N(eps) with tetradecanedioyl-4xgGlu, also called Ex. No. 8) chain 1: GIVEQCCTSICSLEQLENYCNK chain 2: FVQQHLCGSHLVEALYLVCGERGFFYTDR
34.3 % rel to HI

Then what about the binder A14E, A22K(N(eps)tetradecanedioyl-gGlu-2xOEG), B3E, B27E, B28E, B29R, desB30 human insulin (ligand, not fully specified; Lys A22 acylated on N(eps) with tetradecanedioyl-gGlu-2xOEG, Two-chain acylated insulin analogue; also called Ex. No. 2) chain 1: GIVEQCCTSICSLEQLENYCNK chain 2: FVEQHLCGSHLVEALYLVCGERGFFYEER ?
50.1 % rel to HI

// query: A14E, A22K(N(eps)hexadecanedioyl-gGlu-2xOEG), B3E, B27E, B28E, B29R, desB30 human insulin (ligand, not fully specified; Lys A22 acylated on N(eps) with hexadecanedioyl-gGlu-2xOEG, Two-chain acylated insulin analogue; also called Ex. No. 26) chain 1: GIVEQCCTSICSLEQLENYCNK chain 2: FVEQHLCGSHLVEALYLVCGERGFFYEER
19.3 % rel to HI

Okay, and A8R, A22K(N(eps)tetradecanedioyl-4xgGlu), B3E, B26E, B29R, desB30 human insulin (ligand, not fully specified; Lys A22 acylated on N(eps) with tetradecanedioyl-4xgGlu, Two-chain acylated insulin analogue; also called Ex. No. 15) chain 1: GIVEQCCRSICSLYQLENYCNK chain 2: FVEQHLCGSHLVEALYLVCGERGFFETPR ?
108 % rel to HI

A14E, A22K(N(eps)tetradecanedioyl-4xgGlu), B3E, B27E, B28E, B29R, desB30 human insulin (ligand, not fully specified; Lys A22 acylated on N(eps) with tetradecanedioyl-4xgGlu, Two-chain acylated insulin analogue; also called Ex. No. 4) chain 1: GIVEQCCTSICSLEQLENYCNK chain 2: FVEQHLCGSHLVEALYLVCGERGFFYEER , same question.
36.6 % rel to HI

Request: A8R, A22K(N(eps)tetradecanedioyl-4xgGlu), B3E, B27E, B28R, desB29, desB30 human insulin (ligand, not fully specified; Lys A22 acylated on N(eps) with tetradecanedioyl-4xgGlu, Two-chain acylated insulin analogue; also called Ex. No. 17) chain 1: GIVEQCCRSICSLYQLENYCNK chain 2: FVEQHLCGSHLVEALYLVCGERGFFYER
85.2 % rel to HI

Repeat for the following binder: A8R, A22K(N(eps)tetradecanedioyl-4xgGlu), B3E, B26E, B27P, B28R, desB29, desB30 human insulin (ligand, not fully specified; Lys A22 acylated on N(eps) with tetradecanedioyl-4xgGlu, also called Ex. No. 16) chain 1: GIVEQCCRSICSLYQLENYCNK chain 2: FVEQHLCGSHLVEALYLVCGERGFFEPR
113 % rel to HI

A14E, A22K(N(eps)tetradecanedioyl-4xgGlu), B3Q, B27E, B28E, B29R, desB30 human insulin (ligand, not fully specified; Lys A22 acylated on N(eps) with tetradecanedioyl-4xgGlu, also called Ex. No. 9) chain 1: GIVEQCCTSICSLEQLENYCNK chain 2: FVQQHLCGSHLVEALYLVCGERGFFYEER , same question.
36.8 % rel to HI

And A8R, A22K(N(eps)tetradecanedioyl-4xgGlu), B3E, B27E, B28E, B29R, desB30 human insulin (ligand, not fully specified; Lys A22 acylated on N(eps) with tetradecanedioyl-4xgGlu, Two-chain acylated insulin analogue; also called Ex. No. 24) chain 1: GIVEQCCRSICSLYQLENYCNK chain 2: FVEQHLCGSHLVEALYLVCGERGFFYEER ?
88.1 % rel to HI

Also A8R, A22K(N(eps)tetradecanedioyl-4xgGlu), B3E, B26E, B28E, B29R, desB30 human insulin (ligand, not fully specified; Lys A22 acylated on N(eps) with tetradecanedioyl-4xgGlu, Two-chain acylated insulin analogue; also called Ex. No. 23) chain 1: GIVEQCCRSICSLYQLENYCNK chain 2: FVEQHLCGSHLVEALYLVCGERGFFETER ?
78.5 % rel to HI

// query: A14E, A22K(N(eps)hexadecanedioyl-4xgGlu), B3E, B27E, B28E, B29R, desB30 human insulin (ligand, not fully specified; Lys A22 acylated on N(eps) with hexadecanedioyl-4xgGlu, Two-chain acylated insulin analogue; also called Ex. No. 27) chain 1: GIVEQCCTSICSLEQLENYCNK chain 2: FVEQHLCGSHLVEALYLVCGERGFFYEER
16.5 % rel to HI
